Details: in isopropanol, 308.15 K

- smi: "NC(=O)Nc1ccccc1"
  solubility (mole fraction): 0.0253

---

Conditions: in n-propanol, 298.15 K

- smi: "NC(=O)Nc1ccccc1"
  solubility (mole fraction): 0.0334

---

Conditions: in 1,4-dioxane, 308.15 K

- smi: "NC(=O)Nc1ccccc1"
  solubility (mole fraction): 0.0276

---

Details: in DMSO, 303.15 K

- smi: "NC(=O)Nc1ccccc1"
  solubility (mole fraction): 0.207

---

Conditions: in 1,4-dioxane, 313.15 K
measure: solubility (mole fraction)

- smi: "NC(=O)Nc1ccccc1"
  measurement: 0.0348

---

Settings: in ethanol, 283.15 K

- smi: "NC(=O)Nc1ccccc1"
  solubility (mole fraction): 0.0236
